Target: T1, CD70 ECD (Homo sapiens, UniProt P32970)
T1 sequence (P32970 39-193 limits assumed): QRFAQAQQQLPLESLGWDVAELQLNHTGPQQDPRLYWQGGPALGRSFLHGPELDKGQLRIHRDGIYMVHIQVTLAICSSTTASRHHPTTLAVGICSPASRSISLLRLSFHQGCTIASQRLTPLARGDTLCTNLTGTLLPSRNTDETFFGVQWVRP
Test: Biacore affinity measurement on immobilized CD70 ECD
Assay type: binding
Conditions: 25° C., CD70 immobilized
outcomeMeasure: ka (M⁻¹ s⁻¹)
Form entry: value (M⁻¹ s⁻¹) — number only.

>  <molecule>
Vorsetuzumab (antibody, V domains shown, Synthetic h1F6 VH amino acid sequence; Synthetic h1F6 VL amino acid sequence) VH: QVQLVQSGAEVKKPGASVKVSCKASGYTFTNYGMNWVRQAPGQGLKWMGWINTYTGEPTYADAFKGRVTMTRDTSISTAYMELSRLRSDDTAVYYCARDYGDYGMDYWGQGTTVTVSS VL: DIVMTQSPDSLAVSLGERATINCRASKSVSTSGYSFMHWYQQKPGQPPKLLIYLASNLESGVPDRFSGSGSGTDFTLTISSLQAEDVAVYYCQHSREVPWTFGQGTKVEIK

>  <assayValue>
45100

$$$$

Proceeding to the next molecule to report its ka.
Suppose we examine the molecule 69A7: parent anti-CD70 antibody (U.S. Pat. No. 8,124,738B2), VH/VL SEQ ID NOs: 1 and 2 (antibody, V domains shown, Synthetic 69A7 VH amino acid sequence; Synthetic 69A7 VL amino acid sequence) VH: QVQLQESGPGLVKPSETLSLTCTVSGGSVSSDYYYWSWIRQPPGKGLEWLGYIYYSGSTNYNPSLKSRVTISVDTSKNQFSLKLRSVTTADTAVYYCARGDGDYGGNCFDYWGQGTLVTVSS VL: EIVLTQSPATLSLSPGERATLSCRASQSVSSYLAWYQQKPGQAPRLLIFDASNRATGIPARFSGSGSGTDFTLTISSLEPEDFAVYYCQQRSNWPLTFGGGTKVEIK ; what ka value has been reported?
6330
